Listing of recorded melting point by entry.

{"molecule": "Cc1ccc(CS(=O)(=O)CCN2CCCC2)cc1 [S7]", "melting point": "84 to 86 °C"}
{"molecule": "O=S(=O)(CCN1CCCC1)Cc1ccc(F)cc1 [S29]", "melting point": "76 to 78 °C"}
{"molecule": "Cc1ccc(CS(=O)(=O)CC[N+](C)(C)C)cc1.[I-] [S5]", "melting point": "212 to 214 °C"}
{"molecule": "Cc1ccc(CS(=O)(=O)CCCN2CCOCC2)cc1 [S19]", "melting point": "92 to 93 °C"}
{"molecule": "Cc1ccc(CS(=O)(=O)CC[N+]2(C)CCCC2)cc1.[I-] [S8]", "melting point": "214 to 216 °C"}
{"molecule": "O=S(=O)(CCN1CCOCC1)Cc1cccc(F)c1 [S25]", "melting point": "74 to 76 °C"}
{"molecule": "Cc1ccc(CS(=O)(=O)CCC[N+]2(C)CCOCC2)cc1.[I-] [S22]", "melting point": "181 to 183 °C"}
{"molecule": "Cc1ccc(CS(=O)(=O)CCCN2CCCC2)cc1 [S20]", "melting point": "84 to 86 °C"}
{"molecule": "O=S(=O)(CCN1CCOCC1)Cc1ccc(F)cc1 [S28]", "melting point": "72 to 74 °C"}
{"molecule": "O=S(=O)(CCN1CCCC1)Cc1ccc(Br)cc1 [S9]", "melting point": "90 to 92 °C"}
{"molecule": "CN(C)CCS(=O)(=O)Cc1ccc(Br)cc1 [S3]", "melting point": "58 to 60 °C"}
